assay: chemical genetic growth profiling, strain panel (AID 1159580);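 also: tested at 20 µM; growth read once vehicle control cultures reached saturation at 30 °C; 1 = growth at the plate median or of vehicle wells; lower values mean less growth of the strain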; conditions: S. cerevisiae deletion strains, growth OD, locus YPL256C, strain CLN2
The campaign covered roughly 5,500 compounds. About 2,000 (36%) were called active. Roughly 18% stayed inconclusive and do not appear here. Rule as the data show it: active = normalized growth mostly below about 0.91 (no sharp cut-off); inconclusive = no clear call, values can overlap the other calls; inactive = mostly above about 0.92. Some of the results follow.
Classes used: label 1 = active, label 0 = inactive

- Cc1cccc(C)c1NC1=NCCCS1: label 0
- CC[N+](CC)(CC)CCOc1cccc(OCC[N+](CC)(CC)CC)c1OCC[N+](CC)(CC)CC: label 0
- NC(N)=NS(=O)(=O)c1ccc(N)cc1: label 0
- O=c1c2ccccc2[nH]c(=S)n1-c1cccc(C(F)(F)F)c1: label 1
- CC(C)NC[C@H](O)COc1cccc2ccccc12: label 0
- C[N+]1(C)C2CC(OC(=O)[C@@H](CO)c3ccccc3)CC1C1OC12 (stereo partly specified): label 0

These measurements were taken from PubChem BioAssay AID1159580.
